Every entry's value here was drawn from patent US20260265383A1.

Molecular target: T1, RAMP2 IMM ECD V1
T1 construct: The entry includes a signal peptide whose residues cannot be read (drawing); The text says 'RAMP2 ECD'; also called RAMP2 ECD
T1 chain: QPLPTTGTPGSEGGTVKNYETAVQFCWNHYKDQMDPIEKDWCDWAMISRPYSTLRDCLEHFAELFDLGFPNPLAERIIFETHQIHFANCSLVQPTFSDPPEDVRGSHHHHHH
Assay: direct ELISA, 6-well supernatants at 8-500 ng/ml on RAMP2 ECD coated at 1.0 µg/ml
reported-property: titer

Dear reader, for each entry below, please note its titer.
1. RAMP2-rIgG-k1-2H3 (antibody, V domains shown, tested as recombinant rabbit IgG-kappa1; also called rlgG-k1-2H3; 2H3_#13) VH: QSVEESGGDLVKPGASLTLTCTASGFSFSSRYYMCWVRQAPGKGLEWIACIFGGSSDNSYYARWAKGRFTISKTSSTTVTLRMTSLTAADTATYFCVRSDAWGVNLWGPGTLVTVSS VL: AAVMTQTPSPVSGVVGGTVTIKCQASQSIYGYFSWYQQKPGQPPKLLIYSASDLASGVPSRFKGSGSGTQFTLTISDLECADAATYYCQCSYDGSSPNAFGGGTEVVVK
2. RAMP2-rIgG-k1-1A7#1 (antibody, V domains shown, tested as recombinant rabbit IgG-kappa1 made in CHOEBNALT85-1E9 cells (supernatant); also called rlgG-k1-1A7) VH: QSVEESGGDLVKPEGSLTLTCTASGFSFSISYWICWVRQTPGKGLEWIGCIYGGSSGRPYYASWAKGRFTISKTSSTTVTLQMTSLTAADTAAYFCATTAYGGYGYGTWGPGTLVTVSS VL: DGVMTQTPSSVSAAVGSTVTISCQASQSVFSNNYLSWYQQKPGQPPKLLIYTASSLASGVPSRFKGSGSGTQFTLTISDLECADAATYYCQCTYGKSGTDTYLNAFGGGTEVVVK
3. RAMP2-rIgG-k1-1H7 (antibody, V domains shown, tested as recombinant rabbit IgG-kappa1; also called rlgG-k1-1H7; 1H7_#5) VH: QSLEESGGDLVKPEGSLTLTCTASGFSFSISYWICWVRQTPGKGLEWIGCIYGGSSGRPYYASWAKGRFTISKTSSTTVTLQMTSLTAADTAAYFCATTAYGGYGYGTWGPGTLVTVSS VL: AAVLTQTPSSTSGPVGGTVTIKCQASQNIGSFLSWYQQKPGQPPKLLIYSASSLATGVPSRFSGSGSGTQFTLTISGVQCDDAATYYCLGFYAYRSDDGTAFGGGTEVVVK

< 8 ng/mL
< 8 ng/mL
< 8 ng/mL
